method-notes: self-splicing fitness, log relative to wild type (ln ratio); higher = more splicing; Tetrahymena group I intron in knt gene, E. coli kanamycin selection, DiMSum; sequences stand for … in CUCUCU…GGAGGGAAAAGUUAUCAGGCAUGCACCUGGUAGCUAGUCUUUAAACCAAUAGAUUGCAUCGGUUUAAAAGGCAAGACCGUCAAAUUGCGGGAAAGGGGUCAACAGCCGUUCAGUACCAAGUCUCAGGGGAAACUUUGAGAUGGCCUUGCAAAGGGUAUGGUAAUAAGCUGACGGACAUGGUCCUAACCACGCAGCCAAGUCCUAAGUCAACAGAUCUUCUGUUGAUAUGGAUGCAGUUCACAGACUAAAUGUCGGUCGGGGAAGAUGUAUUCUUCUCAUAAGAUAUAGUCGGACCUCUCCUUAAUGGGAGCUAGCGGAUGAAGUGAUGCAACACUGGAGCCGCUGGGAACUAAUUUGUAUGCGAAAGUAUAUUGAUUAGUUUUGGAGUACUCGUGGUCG;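 also: selection with 25 µg/mL kanamycin versus none on LB agar overnight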
assay-setup: 30 °C
quantity-measured: self-splicing fitness (ln)

1) UAAGAGCAAUAUUACGAUAU	-3.22
2) GAAGAGCAAUAUUACGGCAG	-4.54
3) CGGGAGCAAUAUUACGGUCG	-2.77
4) UUUGAGCAAUAUUACGGUGA	-2.07
5) GGGUAGCAAUAUUACGGUAA	-1.28
6) CAGCAGCAAUAUUACGCAUU	-3.68
7) CAGUAGCAAUAUUACGAGGC	-3.19
8) CAGAAGCAAUAUUACGAUCG	-0.236
9) GAAUAGCAAUAUUACGCAAA	-3.06
10) GUGGAGCAAUAUUACGGCCG	-3.44
11) UUGAAGCAAUAUUACGUACG	-0.166
12) CGGUAGCAAUAUUACGUACU	-1.36
13) GGAUAGCAAUAUUACGACAC	-0.106
14) UUAUAGCAAUAUUACGACUG	-1.05
15) AUAGAGCAAUAUUACGCGGA	-1.35
16) CUUAAGCAAUAUUACGCAGA	-3.41
17) GAACAGCAAUAUUACGAUCU	-1.33
18) CCCUAGCAAUAUUACGAAGU	-4.34
19) CCAUAGCAAUAUUACGAAGG	-3.26
20) CGGCAGCAAUAUUACGAAUC	-4.16
21) UCUUAGCAAUAUUACGGGUA	-1.46
22) CCCCAGCAAUAUUACGCAUC	-3.84
23) CGUGAGCAAUAUUACGUCGG	-0.475
24) AACAAGCAAUAUUACGAGGG	-3
25) AUCUAGCAAUAUUACGGGCG	-0.656
26) AUUGAGCAAUAUUACGGGUC	-3.34
27) GCAUAGCAAUAUUACGGCCU	-1.44
28) GGCGAGCAAUAUUACGCAGA	-3.15
29) CCACAGCAAUAUUACGCUGA	-2.51
30) CAUGAGCAAUAUUACGAGCG	-0.045
